Tested on: Leishmania infantum
Test: Antileishmanial activity against Leishmania infantum MCAN/ES/89/IPZ229/1/89 promastigotes assessed as induction of cell death at 25 uM after 24 hrs by propidium iodide staining based flow cytometry
Format: functional
Activity calls are given as the source filed them. No cut-off for these calls is given here. Square brackets hold non-standard residues; d marks the D form. Peptide text beside a SMILES is read from it. ξ: configuration not given here. ξNle = CCCCC(N)C(=O)O
MEASUREMENT_NAME: Activity

Please report the measured Activity for CCCCC(NC(=O)[C@H](CCCCN)NC(=O)[C@H](CCCCN)NC(=O)[C@H](CO)NC(=O)[C@@H](NC(=O)CNC(=O)[C@H](CCC(=O)O)NC(=O)[C@H](CO)NC(=O)[C@H](CCC(N)=O)NC(=O)[C@@H](NC(=O)[C@@H](NC(=O)[C@H](CCCCN)NC(=O)[C@@H]1CCCN1C(C)=O)[C@@H](C)CC)[C@@H](C)CC)[C@@H](C)CC)C(N)=O (stereo partly drawn) (Ac-PKIIQSEGISKK[ξNle]-NH2)
inactive

Please report the measured Activity for CC[C@H](C)[C@H](NC(=O)[C@@H]1CCCCNC(=O)CC[C@H](NC(=O)[C@@H](NC(=O)[C@H](CCCCN)NC(=O)[C@@H]2CCCN2C(C)=O)[C@@H](C)CC)C(=O)N[C@@H](CCC(N)=O)C(=O)NC(CO)C(=O)N[C@@H](C(C)C)C(=O)N1)C(N)=O (single isomer, unassigned)
inactive

Please report the measured Activity for CC[C@H](C)[C@H](NC(=O)CNC(=O)[C@@H](NC(=O)[C@H](CO)NC(=O)[C@H](CCC(N)=O)NC(=O)[C@@H](NC(=O)[C@@H](NC(=O)[C@H](CCCCN)NC(=O)[C@@H]1CCCN1C(C)=O)[C@@H](C)CC)[C@@H](C)CC)C(C)C)C(N)=O
inactive

---

Property: LC50; scope: individual compounds
Tested on: Leishmania infantum
Assay: Antileishmanial activity against Leishmania infantum axenic amastigotes assessed as induction of cell death after 24 hrs by propidium iodide staining based flow cytometry
Type: functional
The figure you give is taken to be in nM; do not add the unit.

Please report the measured LC50 for CCCCCCCCCCCCCCCCCCOCC(COP(=O)([O-])OCC[N+](C)(C)C)OC (centres undefined)
600

Note: attention shifts to another entry.
Please report the measured LC50 for CCCCCCCCCCCCCCCCOP(=O)([O-])OCC[N+](C)(C)C
2000

---

Target: Trypanothione reductase (Leishmania infantum)
Sequence (A4HSF7 whole entry): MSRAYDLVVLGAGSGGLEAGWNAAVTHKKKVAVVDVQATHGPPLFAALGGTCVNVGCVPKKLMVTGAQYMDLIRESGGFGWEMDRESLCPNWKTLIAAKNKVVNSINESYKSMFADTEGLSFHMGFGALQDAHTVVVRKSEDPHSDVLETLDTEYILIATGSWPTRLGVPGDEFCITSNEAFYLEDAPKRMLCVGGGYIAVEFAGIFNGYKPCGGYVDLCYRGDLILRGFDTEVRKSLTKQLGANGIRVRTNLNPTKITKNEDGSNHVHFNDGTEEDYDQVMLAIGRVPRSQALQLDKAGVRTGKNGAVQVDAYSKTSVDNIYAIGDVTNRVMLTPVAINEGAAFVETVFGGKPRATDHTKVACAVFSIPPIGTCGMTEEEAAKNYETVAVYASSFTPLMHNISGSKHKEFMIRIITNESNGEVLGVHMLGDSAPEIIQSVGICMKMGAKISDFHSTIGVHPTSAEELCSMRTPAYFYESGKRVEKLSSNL
Assay: Inhibition of recombinant Leishmania infantum TryR preincubated for 10 mins followed by T[S]2 substrate addition and measured after 1 hr in presence of NADPH
Bridge positions count the residues as written; N and C are the ends. Square brackets hold non-standard residues; d marks the D form. Peptide text beside a SMILES is read from it. ξ: configuration not given here. ξNle = CCCCC(N)C(=O)O
Property: IC50; scope: individual compounds

See these solved cases before continuing.
Please report the measured IC50 for CCCCC(NC(=O)[C@H](CCCCN)NC(=O)[C@@H]1CCCCNC(=O)CC[C@H](NC(=O)[C@H](CO)NC(=O)[C@H](CCC(N)=O)NC(=O)[C@@H](NC(=O)[C@@H](NC(=O)[C@H](CCCCN)NC(=O)[C@@H]2CCCN2C(C)=O)[C@@H](C)CC)[C@@H](C)CC)C(=O)NCC(=O)N[C@@H]([C@@H](C)CC)C(=O)N[C@@H](CO)C(=O)N1)C(N)=O (stereo partly specified) (Ac-PKIIQSEGISKK[ξNle]-NH2; lactam 7-11)
> 75 µM

Please report the measured IC50 for CC[C@H](C)[C@H](NC(=O)CNC(=O)[C@@H](NC(=O)[C@H](CO)NC(=O)[C@H](CCC(N)=O)NC(=O)[C@@H](NC(=O)[C@@H](NC(=O)[C@H](CCCCN)NC(=O)[C@@H]1CCCN1C(C)=O)[C@@H](C)CC)[C@@H](C)CC)C(C)C)C(N)=O
3.7 µM

Please report the measured IC50 for CCCCC(NC(=O)[C@H](CCCCN)NC(=O)C(CCCC)NC(=O)[C@H](CO)NC(=O)[C@@H](NC(=O)CNC(=O)[C@@H]1CCCCNC(=O)CC[C@H](NC(=O)[C@H](CCCCN)NC(=O)[C@@H]2CCCN2C(C)=O)C(=O)N[C@@H]([C@@H](C)CC)C(=O)N[C@@H](CCC(N)=O)C(=O)N[C@@H](CO)C(=O)N1)[C@@H](C)CC)C(N)=O (stereo partly specified) (Ac-PKEIQSKGIS[ξNle]K[ξNle]-NH2; lactam 3-7)
0.9 µM

New cases:
Please report the measured IC50 for CC[C@H](C)[C@H](NC(=O)[C@@H]1CCCCNC(=O)CC[C@H](NC(=O)[C@@H](NC(=O)[C@H](CCCCN)NC(=O)[C@@H]2CCCN2C(C)=O)[C@@H](C)CC)C(=O)N[C@@H](CCC(N)=O)C(=O)NC(CO)C(=O)N[C@@H](C(C)C)C(=O)N1)C(N)=O (single isomer, unassigned)
> 75 µM

Please report the measured IC50 for CCCCC(NC(=O)[C@H](CCCCN)NC(=O)C(CCCC)NC(=O)[C@H](CO)NC(=O)[C@@H](NC(=O)[C@H](CCC(=O)O)NC(=O)[C@@H](NC(=O)[C@H](CO)NC(=O)[C@H](CCC(N)=O)NC(=O)[C@@H](NC(=O)[C@@H](NC(=O)[C@H](CCCCN)NC(=O)[C@@H]1CCCN1C(C)=O)[C@@H](C)CC)[C@@H](C)CC)C(C)C)[C@@H](C)CC)C(N)=O (stereo partly specified)
> 75 µM

Please report the measured IC50 for CC[C@H](C)[C@H](NC(=O)CNC(=O)[C@@H]1CCCCNC(=O)CC[C@H](NC(=O)[C@H](CCCCN)NC(=O)[C@@H]2CCCN2C(C)=O)C(=O)N[C@@H]([C@@H](C)CC)C(=O)N[C@@H](CCC(N)=O)C(=O)N[C@@H](CO)C(=O)N1)C(N)=O (Ac-PKEIQSKGI-NH2; lactam 3-7)
> 75 µM
